# merged literature set: IC50 with UniProt P24530
Measurement kind: IC50 (nM)

> print(dat)
                                   compound  unit.descriptor  number
1  COc1cccc(OC)c1Cc1sc2ncccc2c1S(=O)(=O)Nc1onc(C)c1Cl               nM   10100
2  COc1ccc(Cl)c(Oc2c(NS(=O)(=O)c3ccc(C(F)(F)F)cc3)cc(C(=O)Nc3ccccc3)cc2OCCO)c1               nM      20
3  COc1cccc(Oc2c(NS(=O)(=O)c3ccc(SC)cc3)cc(C(=O)Nc3ccccc3)cc2OCCO)c1               nM      15
4  COc1cccc(Cn2nc(C(=O)O)c3c2-c2ccc(OCc4cncnc4)cc2CC3)c1               nM     140
5  CCOCC(c1cccc(OCC)c1)n1nc(C(=O)O)c2c1-c1ccc(OCc3cncnc3)cc1CC2 (stereo not shown)               nM      92
6  Cc1ccc(Cc2sc3ncccc3c2S(=O)(=O)Nc2onc(C)c2Cl)c(C)c1               nM    1500
7  CCOC(=O)N1CCN(C(=O)c2cc(NS(=O)(=O)c3ccc(C(C)C)cn3)c(Oc3ccccc3OC)c(OCCOC(=O)Nc3ccccn3)c2)CC1               nM     650
